The measured values listed here are drawn from PubChem BioAssay (NCATS).

Tested on: CP286
Assay: qHTS profiling for inhibitors of Plasmodium falciparum proliferation (AID 504749); further: nearly all actives have a fitted effect of over 60% in size; further: potency means the concentration at half of the fitted maximal effect
Details: P. falciparum in erythrocytes, SYBR Green DNA, 72 h; series mostly up to 28.7 µM
Description: NIH National Institute of Allergy and Infectious Diseases [NIAID] NIH Chemical Genomics Center [NCGC] […] Because mature erythrocytes lack DNA, only Plasmodium-derived DNA is detected. NCGC Assay Protocol Summary: The SYBR Green viability assay was adapted from a method described previously (Plouffe et al., 2008). […] The following morning, fluorescence intensity at 485(14) nm excitation and 535(25) nm emission wavelengths was measured on an EnVision (Perkin Elmer) plate reader. […]
Results filed as inconclusive are left out. The source made the active and inactive calls. The call rests on the fitted dose curve; in most records, active means well fitted inhibition curve with a large enough effect; inconclusive means small, poorly fitted or top-dose-only effect; inactive means flat fitted curve, though single readings scatter.
MEASURE: Potency

MOLECULE	MEASURED_VALUE
CC(C)(C(=O)c1cccnc1)c1cccnc1	inactive
CC(C)(C)CC(C)(C)c1ccc(O)c(Cc2ccc(Cl)cc2Cl)c1	2.51 µM (active)
Cc1c(F)c(N2CCNC(C)C2)cc2c1c(=O)c(C(=O)O)cn2C1CC1 (stereo unspecified)	inactive
COc1c2occc2c(OC)c2c(=O)cc(C)oc12	inactive
C1CCc2nnnn2CC1	inactive
CCOc1ccc2nc3cc(N)ccc3c(N)c2c1	1.41 µM (active)
CN(C)CC/C=C1\c2ccccc2Sc2ccc(Cl)cc21	11.2 µM (active)
COc1ccc(/C=C/C(=O)c2ccc(OC)cc2OC)cc1	10 µM (active)
CN1CCC[C@@H]1c1cccnc1	inactive
CN1CCC(=C2c3ccccc3Sc3ccccc32)CC1	11.2 µM (active)
CCOC(=O)OC(C)OC1=C(C(=O)Nc2ccccn2)N(C)S(=O)(=O)c2ccccc21 (stereo unspecified)	inactive
CCC(C(=O)OCCN(CC)CC)c1ccccc1 (stereo unspecified)	inactive
C[C@@H]1C(=O)NC2=Nc3cccc(Cl)c3CN21	inactive
Nc1ccc(C(=O)O)cc1	inactive
CCCN1CCCC[C@H]1C(=O)Nc1c(C)cccc1C	inactive
CC(=O)Nc1c(I)cc(I)c(C(=O)O)c1I	inactive
CO/N=C1\CN(c2nc3c(cc2F)c(=O)c(C(=O)O)cn3C2CC2)CC1CN (stereo unspecified)	7.94 µM (active)
CCN(CC)CCOC(=O)C(c1ccccc1)C1CCCCC1 (stereo unspecified)	inactive
C[C@H]1C[C@H]2[C@@H]3CCC4=CC(=O)C=C[C@]4(C)[C@@]3(Cl)[C@@H](O)C[C@]2(C)[C@@]1(O)C(=O)CO	inactive
CCN1CCCC1=O	inactive
NC(CO)(CO)CO	inactive
CC(C)(CO)[C@@H](O)C(=O)NCCCO	inactive
Cc1c(N(C)CS(=O)(=O)O)c(=O)n(-c2ccccc2)n1C	inactive
Nc1ccc(/C=C/c2ccc(N)cc2S(=O)(=O)O)c(S(=O)(=O)O)c1	inactive
OC(CCN1CCCCC1)(c1ccccc1)c1ccccc1	11.2 µM (active)
COc1cc(C(=S)N2CCOCC2)cc(OC)c1OC	inactive
